target: IL-10 (Homo sapiens); experiment: SPR binding to immobilised IL-10; parameters: purchased ebioscience BMS/346; conditions: SPR Biacore T100, CM5 chip, 1X PBS pH 7.4, 25°C, 10 μL/min; steady-state affinity analysis, three independent repeats
Sequence (P22301 19-178): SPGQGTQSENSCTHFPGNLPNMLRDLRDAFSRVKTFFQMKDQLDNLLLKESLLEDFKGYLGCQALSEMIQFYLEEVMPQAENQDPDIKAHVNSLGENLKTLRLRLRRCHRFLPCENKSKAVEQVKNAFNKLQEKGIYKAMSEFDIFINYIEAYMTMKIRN
Ends that are not written are not given here.
quantity kind: Kd (µM)
Field: numeric (µM). Do not append units.

Task: Return Kd for the following sequence: FFKKFFKKFFKKFFKK [P1]
Result: 8.94

* * *

target: IL-10R1 (Homo sapiens, UniProt Q13651); construct: purchased Creative BioMart, USA IL10RA-212H; experiment: SPR binding to immobilised IL-10R1; details: SPR Biacore T100, CM5 chip, 1X PBS pH 7.4, 25°C, 10 μL/min; steady-state affinity analysis, three independent repeats
Ends that are not written are not given here.
quantity kind: Kd (µM)
Field: numeric (µM). Do not append units.

Task: Return Kd for the following sequence: FFKKFFKKFFKKFFKK [P1]
Result: 16
